Each entry below carries its recorded self-cleavage kobs at 2500 uM GlcN6P.
B1: glmS ribozyme (parent)
chain: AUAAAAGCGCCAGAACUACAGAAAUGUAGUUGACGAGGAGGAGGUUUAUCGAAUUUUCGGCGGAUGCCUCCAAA

# Variants of: B1
# experiment: self-cleavage kobs at 2500 uM GlcN6P; higher = faster cleavage; RNA array
# condition_label: with glucosamine-6-phosphate
Fewer inactive variants are shown than the library holds.
Numbers only here, please. The scale is s⁻¹.

Examples with answers:
* G29A A53C | 0.00047
* C11U G59U | 0.000155
* U30A A36U C70G | 0.000108
* C16G G66U | 9.99e-05
* U54A | 0.03

Item A12U A15C G44U has what recorded self-cleavage kobs at 2500 uM GlcN6P?
4.81e-05

Item U47C C58A has what recorded self-cleavage kobs at 2500 uM GlcN6P?
0.00016

Item A15G U57A C68A has what recorded self-cleavage kobs at 2500 uM GlcN6P?
5.07e-05

Item U30A G41U has what recorded self-cleavage kobs at 2500 uM GlcN6P?
0.000147
